Data origin: patent US20060183105A1

- Test Target: human brain-derived potassium channel subunit SEQ ID NO:3 (hKvQT2) (Homo sapiens, UniProt O43526, N780T)
- Construct: EGFP (Enhanced Green Fluorescent Protein), from pEGFPC1
- Sequence (O43526 1-854 isoform O43526-2 N762T): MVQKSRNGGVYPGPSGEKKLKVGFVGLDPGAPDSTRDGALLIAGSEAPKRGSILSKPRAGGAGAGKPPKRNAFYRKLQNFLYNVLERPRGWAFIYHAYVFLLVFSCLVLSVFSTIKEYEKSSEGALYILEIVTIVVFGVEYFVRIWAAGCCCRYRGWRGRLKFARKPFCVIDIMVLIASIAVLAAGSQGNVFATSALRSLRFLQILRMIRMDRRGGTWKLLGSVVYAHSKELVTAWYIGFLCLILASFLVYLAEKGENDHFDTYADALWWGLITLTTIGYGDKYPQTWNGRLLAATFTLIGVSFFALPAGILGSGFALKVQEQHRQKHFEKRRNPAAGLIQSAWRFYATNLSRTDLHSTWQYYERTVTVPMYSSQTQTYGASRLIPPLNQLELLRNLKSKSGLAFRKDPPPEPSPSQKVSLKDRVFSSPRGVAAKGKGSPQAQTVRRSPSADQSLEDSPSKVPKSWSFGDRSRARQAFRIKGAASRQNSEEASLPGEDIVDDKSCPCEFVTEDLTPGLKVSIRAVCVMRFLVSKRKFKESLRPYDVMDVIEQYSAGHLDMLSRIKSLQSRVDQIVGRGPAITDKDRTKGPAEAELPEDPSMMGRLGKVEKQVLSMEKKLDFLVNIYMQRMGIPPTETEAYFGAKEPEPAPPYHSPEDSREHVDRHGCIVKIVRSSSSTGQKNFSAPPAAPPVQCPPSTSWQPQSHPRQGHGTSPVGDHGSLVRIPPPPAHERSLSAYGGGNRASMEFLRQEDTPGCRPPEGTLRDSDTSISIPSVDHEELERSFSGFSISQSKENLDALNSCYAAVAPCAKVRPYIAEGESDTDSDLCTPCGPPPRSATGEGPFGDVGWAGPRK
- Experimental Details: cell-based
- Method: transfection: HEK293 cells (ATCC, Rockville, Md.) were transfected as follows: 70 ul LipoTAXI (Stratagene, La Jolla, Calif.) was added to a polystyrene tube and gently mixed. Two (2) ug pEFGPC1 (control vector used to trace the transfected cells) and 5 ug of one of the constructs (SEQ ID NO:2 in pcDNA3 or SEQ ID NO:4 in pcDNA3) was added to the lipid/media mixture and incubated for 20 minutes. Two (2)mls of OPTI-MEM I was then added and mixed gently. […]

>  <Compound>
CC[N+](CC)(CC)CC.[Cl-] [TEA, tetraethylammonium chloride]

>  <IC50 (µM)>
130

$$$$
